biological target: T1, c-Met-Fc chimera protein (UniProt P08581 25-932, limits assumed); experiment: SPR presumed (Biacore as in 9-1; method not given), c-Met-Fc on chip
T1 construct: Captured on the SPR chip by an anti-IgG antibody; not shown: Fc part
T1 sequence (P08581 25-932 limits assumed, change not shown): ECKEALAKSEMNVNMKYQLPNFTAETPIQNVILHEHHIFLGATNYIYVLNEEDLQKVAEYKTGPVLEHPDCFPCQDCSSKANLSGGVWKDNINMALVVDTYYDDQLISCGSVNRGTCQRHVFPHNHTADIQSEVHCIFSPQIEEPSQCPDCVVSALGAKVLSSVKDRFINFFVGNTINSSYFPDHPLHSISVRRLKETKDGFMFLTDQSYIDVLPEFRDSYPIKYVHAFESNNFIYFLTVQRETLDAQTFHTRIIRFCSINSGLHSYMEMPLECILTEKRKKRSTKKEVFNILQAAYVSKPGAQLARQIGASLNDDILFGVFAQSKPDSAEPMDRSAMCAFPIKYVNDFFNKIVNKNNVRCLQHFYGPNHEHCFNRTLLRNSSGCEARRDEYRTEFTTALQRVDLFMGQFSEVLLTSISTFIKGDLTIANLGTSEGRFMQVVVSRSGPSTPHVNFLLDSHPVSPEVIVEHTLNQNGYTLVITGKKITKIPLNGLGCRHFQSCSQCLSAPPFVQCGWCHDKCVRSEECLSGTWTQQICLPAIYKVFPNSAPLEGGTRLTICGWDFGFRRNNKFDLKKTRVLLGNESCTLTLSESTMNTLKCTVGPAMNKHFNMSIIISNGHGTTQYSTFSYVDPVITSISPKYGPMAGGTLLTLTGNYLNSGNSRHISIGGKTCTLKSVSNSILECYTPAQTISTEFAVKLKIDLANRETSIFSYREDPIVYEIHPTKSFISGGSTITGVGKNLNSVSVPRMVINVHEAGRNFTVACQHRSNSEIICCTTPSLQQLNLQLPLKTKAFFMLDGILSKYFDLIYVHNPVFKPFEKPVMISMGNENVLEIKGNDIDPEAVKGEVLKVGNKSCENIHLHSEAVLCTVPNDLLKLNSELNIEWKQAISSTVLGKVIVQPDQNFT
Bridges are numbered along the chain shown (N, C = ends). Where no end group is shown, it is not given here. [ ]: non-standard residue; d: D form. NMeW = CN[C@@H](Cc1c[nH]c2ccccc12)C(=O)O; NMeD = CN[C@@H](CC(=O)O)C(=O)O
For each entry below, report its Kd value.
Respond with the bare value in nM.

Quick one: give measured Kd for {CH2CO}-YRQFNRRTHEV[NMeW]NLDCG (thioether N-16) [N12, N-methylated D4-3 peptide] 160

Give the measured Kd for {CH2CO}-YRQFNRRTHEVWNLDCG (thioether N-16; not fully specified, also called D4-3 peptide; D4-3 Monomer) [D4-3] 8.5

Output measured Kd for this item: {CH2CO}-YRQFNRRTHEVWNL[NMeD]CG (thioether N-16 (inferred)) [N15, N-methylated D4-3 peptide] 160

All figures here come from patent US20160237119A1.
